# protocol: qHTS assay for identifying genotoxic compounds that show differential cytotoxicity against isogenic chicken DT40 cell lines with known DNA damage response pathways - wild type cell line (AID 743012); note: nearly all actives have a fitted effect of over 60% in size
# condition_set: DT40 wild type chicken cells viability, CellTiter-Glo, 40 h; series mostly up to 68.4 µM
# Description: U.S. Tox21 Program National Center for Advancing Translational Sciences [NCATS] NIH Chemical Genomics Center [NCGC] U.S. Environmental Protection Agency [EPA] National Institutes of Environmental Health Sciences [NIEHS] National Toxicology Program [NTP] U.S. Food and Drug Administration [FDA] Tox21 Assay Overview: DNA repair pathways play a critical role in cellular homeostasis by repairing DNA damage induced by endogenous processes and xenobiotics. […]
Records with an inconclusive call do not appear. Calls of active or inactive are those of the source. Calls come from the whole dose curve; as a rule, active = well fitted cell-killing curve with a large enough effect in the repeat runs; inconclusive = weak or mixed curves, or effect the other way; inactive = no such curve, though single readings can be large or run the other way.
Allowed answers: yes for active, no for inactive

Data request: GET /call?item= CC1(c2ccccc2)OC(C(=O)O)=CC1=O (stereo not drawn) returns the recorded outcome of this test.
Data returned: no

Data request: GET /call?item= CCCCC returns the recorded outcome of this test.
Data returned: no

Data request: GET /call?item= COC(C)OC returns the recorded outcome of this test.
Data returned: no

Data request: GET /call?item= CC(C)=CCC/C(C)=C/CC/C(C)=C/CO returns the recorded outcome of this test.
Data returned: yes

Data request: GET /call?item= O=C1C(O)=C(O)C(=O)C(O)=C1O returns the recorded outcome of this test.
Data returned: no

Data request: GET /call?item= C=CC(=O)OCCOc1ccccc1 returns the recorded outcome of this test.
Data returned: yes

Data request: GET /call?item= Nc1cccc([N+](=O)[O-])c1 returns the recorded outcome of this test.
Data returned: no

Data request: GET /call?item= CCCCCCCN returns the recorded outcome of this test.
Data returned: no

Continuing:
Data request: GET /call?item= O=C(CS)Nc1ccccc1 returns the recorded outcome of this test.
Data returned: yes

Data request: GET /call?item= O=C1CCCCCCCCCCCC(=O)OCCO1 returns the recorded outcome of this test.
Data returned: yes

Data request: GET /call?item= O=CC1CC=CCC1 (stereo not drawn) returns the recorded outcome of this test.
Data returned: no

Data request: GET /call?item= CC(C)CC(=O)C1C(=O)c2ccccc2C1=O returns the recorded outcome of this test.
Data returned: no

Data request: GET /call?item= ClCCOCCOCCCl returns the recorded outcome of this test.
Data returned: no

Data request: GET /call?item= CC(C)OC(=O)C(C)N(C(=O)c1ccccc1)c1ccc(F)c(Cl)c1 (stereo not drawn) returns the recorded outcome of this test.
Data returned: yes

Data request: GET /call?item= CN1C[C@H]2c3ccccc3Oc3ccc(Cl)cc3[C@@H]2C1 returns the recorded outcome of this test.
Data returned: yes

Data request: GET /call?item= CCN(CC)CCNC(=O)c1cc(Br)c(N)cc1OC returns the recorded outcome of this test.
Data returned: no

---

# protocol: qHTS assay to identify small molecule agonists of the sonic hedgehog signaling (Shh) pathway - cell viability counter screen (AID 1259366); note: nearly all actives have a fitted effect of over 50% in size
# condition_set: NIH/3T3 Gli1-Luc viability, CellTiter-Fluor, 24 h; series mostly up to 92.4 µM
Results filed as inconclusive are left out. The source made the active and inactive calls. The call rests on the fitted dose curve; in most records, active means well fitted cell-killing curve with a large enough effect in the repeat runs; inconclusive means weak or mixed curves, or effect the other way; inactive means flat fitted curve, though single readings scatter.
Allowed answers: 1 = active, 0 = inactive

# example entries with known answers
Data request: GET /call?item= C=C(C)C(=O)OCCOCC returns the recorded outcome of this test.
Data returned: 0

Data request: GET /call?item= CC(C)O.CC(C)O.CCOC(=O)/C=C(\C)O.CCOC(=O)/C=C(\C)O.[Ti] returns the recorded outcome of this test.
Data returned: 0

Data request: GET /call?item= CC1=CC[C@H](C(C)C)C=C1 returns the recorded outcome of this test.
Data returned: 0

Data request: GET /call?item= CC(COCCO)OCCO (centres undefined) returns the recorded outcome of this test.
Data returned: 0

Continuing:
Data request: GET /call?item= O=C(OCCCCCCOC(=O)c1ccccc1)c1ccccc1 returns the recorded outcome of this test.
Data returned: 0

Data request: GET /call?item= O=C1CCC(=O)O1 returns the recorded outcome of this test.
Data returned: 0

Data request: GET /call?item= O=C1CCCCCCCCCCCC(=O)OCCO1 returns the recorded outcome of this test.
Data returned: 0

Data request: GET /call?item= O=C(O)c1ccccc1Cl returns the recorded outcome of this test.
Data returned: 0

Data request: GET /call?item= CNCCCCOc1ccccc1Cc1ccccc1 returns the recorded outcome of this test.
Data returned: 1

---

# protocol: qHTS assay for identifying genotoxic compounds that show differential cytotoxicity against isogenic chicken DT40 cell lines with known DNA damage response pathways - Rad54/Ku70 mutant cell line (AID 743015); note: nearly all actives have a fitted effect of over 60% in size
# condition_set: DT40 Rad54/Ku70 mutant viability, CellTiter-Glo, 40 h; series mostly up to 66.8 µM
# Text: National Center for Advancing Translational Sciences [NCATS] NIH Chemical Genomics Center [NCGC] U.S. Environmental Protection Agency [EPA] National Institutes of Environmental Health Sciences [NIEHS] National Toxicology Program [NTP] U.S. Food and Drug Administration [FDA] DNA repair pathways play a critical role in cellular homeostasis by repairing DNA damage induced by endogenous processes and xenobiotics. […]
Inconclusive results are not listed. Activity calls are given as the source filed them. The call rests on the fitted dose curve; in most records, active means well fitted cell-killing curve with a large enough effect in the repeat runs; inconclusive means weak or mixed curves; inactive means no such curve, though single readings can be large or run the other way.
Allowed answers: Yes = active, No = inactive

Data request: GET /call?item= Cn1c(=O)cc(Oc2ccc(F)cc2F)c2cnc(NCC(C)(C)O)nc21 returns the recorded outcome of this test.
Data returned: Yes

Continuing:
Data request: GET /call?item= CC(C)OC(=O)C(C)N(C(=O)c1ccccc1)c1ccc(F)c(Cl)c1 (centres undefined) returns the recorded outcome of this test.
Data returned: Yes

---

# protocol: qHTS assay to identify small molecule agonists of the estrogen receptor beta (ER-beta) signaling pathway - cell viability counter screen (AID 1259380); note: nearly all actives have a fitted effect of over 30% in size
# condition_set: ER-beta-bla HEK293T viability, CellTiter-Glo luminescence, 16 h; series mostly up to 92.4 µM
Results filed as inconclusive are left out. Active and inactive are the calls of the source. Calls come from the whole dose curve; as a rule, active = well fitted cell-killing curve with a large enough effect in the repeat runs; inconclusive = weak or mixed curves, or effect the other way; inactive = flat fitted curve, though single readings scatter.
Allowed answers: Y = active, N = inactive

Data request: GET /call?item= O=[N+]([O-])c1cccc(S(=O)(=O)O)c1 returns the recorded outcome of this test.
Data returned: Y

Data request: GET /call?item= CC(COCCO)OCCO (stereo unspecified) returns the recorded outcome of this test.
Data returned: N

Data request: GET /call?item= C#Cc1cccc(Nc2ncnc3cc(OCCOC)c(OCCOC)cc23)c1 returns the recorded outcome of this test.
Data returned: Y

Data request: GET /call?item= c1ccc(CNCCNCc2ccccc2)cc1 returns the recorded outcome of this test.
Data returned: N

Data request: GET /call?item= ClCCOCCOCCCl returns the recorded outcome of this test.
Data returned: N

Data request: GET /call?item= Cc1cc(N)c2cc(NC(=O)Nc3ccc4nc(C)cc(N)c4c3)ccc2n1 returns the recorded outcome of this test.
Data returned: N

---

# test_target: Cytochrome P450 2C9 (Homo sapiens) (UniProt P11712)
# Sequence (P11712 whole entry, looked up): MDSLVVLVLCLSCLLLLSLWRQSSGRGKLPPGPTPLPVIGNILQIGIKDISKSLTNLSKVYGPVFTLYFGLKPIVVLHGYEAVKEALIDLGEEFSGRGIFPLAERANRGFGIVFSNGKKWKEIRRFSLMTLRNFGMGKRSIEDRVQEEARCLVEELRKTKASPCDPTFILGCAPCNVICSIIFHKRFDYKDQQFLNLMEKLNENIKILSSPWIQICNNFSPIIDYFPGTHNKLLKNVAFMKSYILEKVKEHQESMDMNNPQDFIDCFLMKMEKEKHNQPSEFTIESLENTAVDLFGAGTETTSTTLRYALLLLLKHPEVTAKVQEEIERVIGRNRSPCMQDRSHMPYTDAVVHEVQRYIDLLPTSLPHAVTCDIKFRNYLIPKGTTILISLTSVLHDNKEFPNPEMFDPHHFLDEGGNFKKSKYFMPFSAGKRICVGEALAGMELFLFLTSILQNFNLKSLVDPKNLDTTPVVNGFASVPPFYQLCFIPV
# protocol: Cytochrome P450 Family 2 Subfamily C Member 9 (CYP2C9) small molecule antagonists: luciferase reporter qHTS assay (AID 1671198); note: nearly all actives have a fitted effect of over 50% in size
# condition_set: P450-Glo CYP2C9 enzyme assay, luciferin luminescence; series mostly up to 115 µM
# From the text: U.S. Tox21 Program National Center for Advancing Translational Sciences [NCATS] U.S. Environmental Protection Agency [EPA] National Institutes of Environmental Health Sciences [NIEHS] National Toxicology Program [NTP] U.S. Food and Drug Administration [FDA] […] The luciferin products formed are detected with a luciferin detection reagent, and the amount of light produced is proportional to CYP activity. […]
Records with an inconclusive call do not appear. Calls of active or inactive are those of the source. Calls come from the whole dose curve; as a rule, active = well fitted inhibition curve with a large enough effect in the repeat runs; inconclusive = weak or mixed curves; inactive = no such curve, though single readings can be large or run the other way.
Allowed answers: 1 (yes) (active), 0 (no) (inactive)

Data request: GET /call?item= OC(CN1CCC(Cc2ccc(F)cc2)CC1)c1ccc(Cl)cc1 (configuration not stated) returns the recorded outcome of this test.
Data returned: 0 (no)

Data request: GET /call?item= CCCOC(C(=O)OC1CCN(C)CC1)(c1ccccc1)c1ccccc1 returns the recorded outcome of this test.
Data returned: 0 (no)

Data request: GET /call?item= CN1CCN(C(c2ccccc2)c2ccccc2)CC1 returns the recorded outcome of this test.
Data returned: 0 (no)

Data request: GET /call?item= Brc1c2ccccc2cc2ccccc12 returns the recorded outcome of this test.
Data returned: 1 (yes)

Data request: GET /call?item= O=C1C(O)=C(O)C(=O)C(O)=C1O returns the recorded outcome of this test.
Data returned: 0 (no)

Continuing:
Data request: GET /call?item= CCC(C)(C)CC returns the recorded outcome of this test.
Data returned: 0 (no)

Data request: GET /call?item= CCCCC1=NC2(CCCC2)C(=O)N1Cc1ccc(-c2ccccc2-c2nn[nH]n2)cc1 returns the recorded outcome of this test.
Data returned: 1 (yes)

Data request: GET /call?item= C#CCN(C)CCCOc1ccc(Cl)cc1Cl returns the recorded outcome of this test.
Data returned: 1 (yes)

---

# protocol: A CellTox Green Cytotoxicity Assay to monitor cytotoxicity in HepG2 cells - 40 hour (AID 1224879); note: nearly all actives have a fitted effect of over 40% in size
# condition_set: CellTox Green fluorescence; series mostly up to 76.8 µM
Records with an inconclusive call do not appear. Activity calls are given as the source filed them. Calls follow the shape of the dose curve; as a rule, active = well fitted activation curve with a large enough effect in the repeat runs; inconclusive = weak or mixed curves; inactive = flat fitted curve, though single readings scatter.
Allowed answers: yes for active, no for inactive

Data request: GET /call?item= CCc1cc(C2=C(C(=O)O)N(c3ccccc3C(F)(F)F)S(=O)(=O)c3ccccc32)cc2c1OCO2 returns the recorded outcome of this test.
Data returned: no

Continuing:
Data request: GET /call?item= c1ccc(CNCCNCc2ccccc2)cc1 returns the recorded outcome of this test.
Data returned: no

Data request: GET /call?item= CCn1cc(C(=O)O)c(=O)c2cnc(N3CCNCC3)nc21 returns the recorded outcome of this test.
Data returned: no

Data request: GET /call?item= O=S(c1cc(Cl)cc(Cl)c1O)c1cc(Cl)cc(Cl)c1O returns the recorded outcome of this test.
Data returned: no

Data request: GET /call?item= Cc1nn(C)c(Oc2ccccc2)c1/C=N/OCc1ccc(C(=O)OC(C)(C)C)cc1 returns the recorded outcome of this test.
Data returned: no

Data request: GET /call?item= CCCCCCOC(=O)NC(=N)c1ccc(NCc2nc3cc(C(=O)N(CCC(=O)OCC)c4ccccn4)ccc3n2C)cc1 returns the recorded outcome of this test.
Data returned: yes

Data request: GET /call?item= Cc1oc(-c2ccccc2)nc1CCOc1cccc2c1ccn2CCC(=O)O returns the recorded outcome of this test.
Data returned: no

Data request: GET /call?item= O=C(OCCCCCCOC(=O)c1ccccc1)c1ccccc1 returns the recorded outcome of this test.
Data returned: no

Data request: GET /call?item= C=C(C)C(=O)OCC returns the recorded outcome of this test.
Data returned: no

Data request: GET /call?item= CC(C)(CO)[N+](=O)[O-] returns the recorded outcome of this test.
Data returned: no

Data request: GET /call?item= CN1C[C@H]2c3ccccc3Oc3ccc(Cl)cc3[C@@H]2C1 returns the recorded outcome of this test.
Data returned: yes

Data request: GET /call?item= CO[C@@H]1[C@H](OC(=O)/C=C/C=C/C=C/C=C/C(=O)O)CC[C@]2(CO2)[C@H]1[C@@]1(C)O[C@@H]1CC=C(C)C returns the recorded outcome of this test.
Data returned: no

Data request: GET /call?item= CCCC(=O)Nc1ccc(O)c(C(C)=O)c1 returns the recorded outcome of this test.
Data returned: no
